Reference for the values: patent US6916812B2

Target: cloned human MC4R (Homo sapiens, UniProt P32245)
Construct: made in house; host or cells: Hi5 insect cells (baculovirus infection); membrane preparation
Sequence (P32245 whole entry): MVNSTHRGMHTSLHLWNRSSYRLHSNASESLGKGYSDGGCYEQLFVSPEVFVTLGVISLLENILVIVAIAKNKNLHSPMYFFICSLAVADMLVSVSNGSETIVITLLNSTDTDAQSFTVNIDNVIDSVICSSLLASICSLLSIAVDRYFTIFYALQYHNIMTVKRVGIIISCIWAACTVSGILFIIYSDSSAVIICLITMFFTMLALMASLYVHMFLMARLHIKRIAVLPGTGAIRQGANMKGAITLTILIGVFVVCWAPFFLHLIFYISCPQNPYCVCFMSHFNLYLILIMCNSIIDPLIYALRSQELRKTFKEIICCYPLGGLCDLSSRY
Assay: Membrane binding assay: competitive inhibition of [125I]NDP-α-MSH binding
Details: read-out: MC4R IC50
# IC50 annotations

Prompt: Entry N[C@@H](Cc1ccc(OCc2ccccc2)cc1)C(=O)N1CCN(Cc2cccc(Oc3cccc(C(F)(F)F)c3)c2)CC1 has what IC50?
Completion: < 1.5 µM

Prompt: Entry CCCCCCCN1CCN(C(=O)[C@@H](N)Cc2ccc(OCc3ccccc3)cc2)CC1 has what IC50?
Completion: 1.5 to 3 µM

Prompt: Entry N[C@@H](Cc1ccc(OCc2ccccc2)cc1)C(=O)N1CCN(Cc2ccc3c(c2)Cc2ccccc2-3)CC1 has what IC50?
Completion: < 1.5 µM
